Sourced from PubChem BioAssay (NCATS)

Assay: qHTS for Inhibitors of Plasmodium falciparum (HB3) proliferation (AID 504318); note: nearly all actives have a fitted effect of over 60% in size
Conditions: P. falciparum HB3 in erythrocytes, SYBR Green DNA, 72 h; series mostly up to 7.21 µM
Results filed as inconclusive are left out. Activity calls are given as the source filed them. Calls come from the whole dose curve; as a rule, active = well fitted inhibition curve with a large enough effect; inconclusive = small, poorly fitted or top-dose-only effect; inactive = flat fitted curve, though single readings scatter.
Possible outcomes: active, inactive

compound=COC(=O)N[C@@H](c1cccc(C)c1)[C@@H](C)[N+](=O)[O-] group_label=inactive
compound="CCN1C(=NCCc2cccnc2)NC(c2ccccc2)C(C(=O)OC)=C1C (stereo unspecified)" group_label=inactive
compound=CC(C)[C@@H](OCc1ccccc1)[C@H](C)C=NOC[C@@H](O)[C@H]1O[C@@H]2OC(C)(C)O[C@H]2[C@@H]1O group_label=inactive
compound=COC(=O)N[C@@H](C=Cc1ccco1)[C@]1(C(=O)OC)CCCC1=O group_label=inactive
compound=COC(=O)N[C@H](C[N+](=O)[O-])C(C)(C)C group_label=inactive
compound=COC(=O)N[C@@H](CCc1ccccc1)[C@]1(C(C)=O)CCCC1=O group_label=inactive
compound="COC(=O)CC1c2ccccc2C=C(C=Cc2ccc3c(c2)OCO3)N1C(=O)OC (stereo unspecified)" group_label=active
compound=COc1ccc(COC(=O)NN=C2C[C@@H](O)[C@@H](O)[C@@H]3[C@H]4C(=O)N(Cc5ccc6c(c5)OCO6)C(=O)[C@@H]4CC[C@H]23)cc1 group_label=inactive
compound=COc1cc2c(cc1OC)[C@@H]1O[C@](CCCCN3C(=O)c4ccccc4C3=O)(C2)OC2=C1C(=O)CC(C)(C)C2 group_label=active
compound="CC(Nc1oc(-c2ccccc2)nc1-c1cccc2ccccc12)c1ccccc1 (stereo unspecified)" group_label=inactive
compound=COC(=O)N[C@H](c1ccccc1)C(C(=O)OC)C(=O)OC group_label=active
compound="COC(=O)NC(c1ccccc1)c1c[nH]c2ccc(OC)cc12 (stereo unspecified)" group_label=inactive
compound="CCN1C(=NCCc2ccccn2)NC(c2cccs2)C(C(=O)OC)=C1C (stereo unspecified)" group_label=inactive
compound=COc1ccc([C@]23Cc4ccccc4[C@H](O2)C2=C(O3)C(=O)c3ccccc3C2=O)cc1 group_label=active
compound="COC(=O)CCCC1=CC2=C(c3ccccc3)C(=O)C(C)(OC(=O)C3CCCC3)C(=O)C2=CN1C1CCCCC1 (stereo unspecified)" group_label=inactive
compound=COc1cc2c(c(OC)c1)[C@H](C=Cc1ccccc1)[C@@H]([C@H](O)CO)OC2 group_label=inactive

* * *

Biological target: Cytochrome P450 2C9 (Homo sapiens) (UniProt P11712)
Sequence (P11712 whole entry, looked up): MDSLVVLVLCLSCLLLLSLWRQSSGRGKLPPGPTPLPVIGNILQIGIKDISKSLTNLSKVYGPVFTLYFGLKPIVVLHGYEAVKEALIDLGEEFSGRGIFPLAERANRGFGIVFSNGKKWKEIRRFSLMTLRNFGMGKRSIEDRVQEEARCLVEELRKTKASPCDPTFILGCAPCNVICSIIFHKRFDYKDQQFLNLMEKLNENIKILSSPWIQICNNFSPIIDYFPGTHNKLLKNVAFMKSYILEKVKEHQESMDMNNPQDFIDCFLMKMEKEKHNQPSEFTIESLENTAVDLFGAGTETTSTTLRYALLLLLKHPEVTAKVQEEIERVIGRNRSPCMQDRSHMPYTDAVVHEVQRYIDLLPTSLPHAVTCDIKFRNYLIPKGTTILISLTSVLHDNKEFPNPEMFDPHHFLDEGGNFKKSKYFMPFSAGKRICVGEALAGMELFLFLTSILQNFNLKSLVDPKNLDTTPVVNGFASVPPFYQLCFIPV
Assay: qHTS Assay for Inhibitors and Substrates of Cytochrome P450 2C9 (AID 883); note: nearly all actives have a fitted effect of over 60% in size
Details: recombinant CYP2C9, luciferin-H luminescence, 60 min; series mostly up to 57.1 µM
Inconclusive results are not listed. Activity calls are given as the source filed them. The call rests on the fitted dose curve; in most records, active means well fitted inhibition curve with a large enough effect; inconclusive means small, poorly fitted or top-dose-only effect; inactive means no such curve, though single readings can be large or run the other way.
Possible outcomes: yes (active), no (inactive)

molecule=CCCN(CCC)C[C@@H]1CCCCN1CCNC(=O)N1c2ccccc2C(=O)Nc2cccnc21 group_label=no
molecule=NCCCCCCCCCCNS(=O)(=O)c1cccc2c(Cl)cccc12 group_label=yes
molecule=O=C(N/N=C\c1ccccc1O)c1ccccc1O group_label=no
molecule=CO[C@@]12C[C@@H](COC(=O)c3cncc(Br)c3)CN(C)[C@H]1Cc1cn(C)c3cccc2c13 group_label=no
molecule=C=C[C@H](N)CCC(=O)O group_label=no
molecule=CSc1nc(NC2CCCC2)c([N+](=O)[O-])c(NC2CCCC2)n1 group_label=yes
molecule="O=S(c1ccccc1)c1ccc2nnnn2n1 (stereo not drawn)" group_label=no
molecule=N#C/C(=C\c1ccc(O)c(O)c1)C(=O)Nc1ccccc1 group_label=no

* * *

Assay: qHTS for Inhibitors of Plasmodium falciparum (7G8) proliferation (AID 504316); note: nearly all actives have a fitted effect of over 65% in size
Details: P. falciparum 7G8 in erythrocytes, SYBR Green DNA, 72 h; series mostly up to 6.7 µM
Inconclusive results are not listed. Active and inactive are the calls of the source. Calls come from the whole dose curve; as a rule, active = well fitted inhibition curve with a large enough effect; inconclusive = small, poorly fitted or top-dose-only effect; inactive = flat fitted curve, though single readings scatter.
Possible outcomes: active, inactive

molecule=CCOC(=O)N1C2=NC(C(=O)OC)=C(C(=O)OC)[C@@H]3Nc4ccccc4[C@]23C[C@H]1C(=O)OC group_label=inactive
molecule=CCOC(=O)CN1C(=O)N[C@@H](CCc2ccccc2)[C@H](C(=O)OC)[C@H]1C group_label=inactive
molecule="C=C(C#CCCO)CCN1C=C(C(=O)OCC)C(c2ccccc2)NC1=O (configuration not stated)" group_label=inactive
molecule="COC(=O)CCC(=O)OC1(C)C(=O)C=C2C=C(C3CC3)N(Cc3ccc4c(c3)OCO4)C=C2C1=O (configuration not stated)" group_label=inactive
molecule="CC1(OC(=O)c2cnc3ccccc3n2)C(=O)C=C2C=C(C3CC3)OC=C2C1=O (configuration not stated)" group_label=inactive
molecule=COc1ccc2c(c1)O[C@@H](c1ccc3c(c1)OCO3)[C@H](OC(=O)Nc1cc(OC)c(OC)c(OC)c1)C2=O group_label=active
molecule="COC(=O)N1C2CC3(C)C=C(C)OC1(C)C3c1ccccc12 (configuration not stated)" group_label=inactive
molecule="C=CCOC(=O)C(C(=O)CC)[C@@H](NC(=O)OC)c1ccc(F)cc1 (some centres not stated)" group_label=inactive
molecule=COC1=C[C@H](C(=O)NCc2ccccc2)[C@@]2(C)Cc3ccccc3[C@@H]2CC1=O group_label=inactive
molecule="CC12C=C(C=CCCc3ccco3)C(C)(C1)C(CCc1ccco1)CC2=O (configuration not stated)" group_label=inactive
molecule="COCCN1C(=O)NC(c2ccc(Br)cc2)C(C(=O)OC)=C1C (configuration not stated)" group_label=inactive
molecule="COCC=CC1=CC2=CC(=O)C(C)(OC(=O)c3cnc4ccccc4n3)C(=O)C2=CN1Cc1ccc(OC)cc1 (configuration not stated)" group_label=inactive
molecule=COC(=O)C1=C(C(=O)OC)[C@@H]2N(Cc3ccccc3)c3ccccc3[C@@]23C[C@@H](C(=O)OC)N(C(=O)Nc2ccc(C(F)(F)F)cc2)C3=N1 group_label=inactive
molecule=COC(=O)N[C@H](C(C(=O)OC)=C(C)NCc1ccccc1)c1ccco1 group_label=inactive
molecule="COC(=O)NC(CCc1ccccc1)C(C(C)=O)C(=O)OC (configuration not stated)" group_label=inactive
molecule=COc1ccc(NC(=O)N2CCc3nc(-c4ccccc4)c4c(c3C2)CO[C@@H](C)C4)cc1 group_label=inactive
molecule=CC(CCN1CCCCc2nc(C)c(C)cc21)=NO[C@H](C)c1cn([C@@H]2COC[C@@H]2O)nn1 group_label=inactive
molecule=COc1ccc(COC(=O)NN=C2C[C@@H](O)[C@@H](O)[C@@H]3[C@H]4C(=O)N(C5CCCCC5)C(=O)[C@@H]4CC[C@H]23)cc1 group_label=inactive
molecule="CC1(OC(=O)C2CCCC2)C(=O)C=C2C=C(c3ccsc3)N(C3CC3)C=C2C1=O (configuration not stated)" group_label=inactive
molecule=COc1ccc(-c2nc(-c3ccccc3)c(NC(C)C)o2)cc1 group_label=active
molecule=COc1ccc(-c2nc(-c3ccccc3)oc2Nc2ccccc2C)cc1 group_label=inactive
molecule=CCCCc1nc2c(c3c1C[C@H](C)OC3)CN(C(=O)C1CCCCC1)CC2 group_label=inactive
molecule=C[C@@H]1CC[C@H]2C(=O)N(Cc3ccc(Cl)cc3)C[C@@H](O)CN2[C@H]1c1cccc(Br)c1 group_label=active
molecule=COC(=O)[C@H]1O[C@@H](c2c(OC)c(OC)c(C)c(OC)c2OC)[C@H](C)[C@@H](O)[C@@H]1C group_label=inactive
molecule=COC(=O)N[C@@H](c1cccc(F)c1)[C@]1(C(=O)OC)CCCC1=O group_label=inactive
molecule="COC(=O)N[C@@H](c1cccc(F)c1)C(C(C)=O)C(=O)OC (some centres not stated)" group_label=inactive
molecule=O=C1[C@@H]2[C@H]3[C@H](O)[C@H](O)CC(=NOC[C@@H](O)COCc4ccco4)[C@@H]3CC[C@H]2C(=O)N1C1CCCCC1 group_label=inactive

* * *

Target: Glutathione peroxidase 1 (Homo sapiens) (UniProt P07203)
Sequence (P07203 whole entry, looked up): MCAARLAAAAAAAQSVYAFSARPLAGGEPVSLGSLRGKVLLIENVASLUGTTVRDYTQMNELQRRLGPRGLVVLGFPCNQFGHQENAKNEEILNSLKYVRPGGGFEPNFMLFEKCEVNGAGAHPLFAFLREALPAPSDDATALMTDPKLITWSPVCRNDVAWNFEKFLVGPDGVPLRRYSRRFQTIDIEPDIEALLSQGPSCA
Test: Primary qHTS Assay for Inhibitors of Recombinant Selenoprotein Glutathione Peroxidase 1 (GPX1) (AID 1845191); note: nearly all actives have a fitted effect of over 65% in size
Details: recombinant GPX1, GR-coupled NADPH fluorescence, 15 min; series mostly up to 48.8 µM
Procedure: Assay Provider: Elias S.J. Arner MD PhD. Department of Medical Biochemistry and Biophysics Karolinska Institutet, Solna, Stockholm, Sweden […] 5; Detection; Fluorescence; ViewLux microplate reader, excitation 340 nm and emission 450 nm. […] 7; Detection; Fluorescence; ViewLux microplate reader, excitation 340 nm and emission 450 nm. […] 5. Initial fluorescence readout (t=0) at 340/450 nm was measured using a ViewLux multimodal detector (PerkinElmer, Waltham, MA). […]
Inconclusive results are not listed. Calls of active or inactive are those of the source. Calls come from the whole dose curve; as a rule, active = well fitted inhibition curve with a large enough effect; inconclusive = small, poorly fitted or top-dose-only effect; inactive = flat fitted curve, though single readings scatter.
Possible outcomes: 1.0 = active, 0.0 = inactive

compound=CC(C)=CCC/C(C)=C/CC/C(C)=C/CSc1ccccc1C(=O)O assay_system="Glutathione peroxidase 1 (Homo sapiens) (UniProt P07203)" group_label=0.0
compound=O=C1NC(=O)C(c2c[nH]c3ccccc23)=C1c1c[nH]c2ccccc12 assay_system="Glutathione peroxidase 1 (Homo sapiens) (UniProt P07203)" group_label=0.0
compound=Cn1cnc(-c2nccc3c(=O)[nH]c(OCCCC(F)(F)F)nc23)c1 assay_system="Glutathione peroxidase 1 (Homo sapiens) (UniProt P07203)" group_label=1.0
compound=CN(C)CCCNc1c2ccccc2nc2c1[nH]c1ccccc12 assay_system="Glutathione peroxidase 1 (Homo sapiens) (UniProt P07203)" group_label=1.0
compound=NC(=O)c1nc(F)c[nH]c1=O assay_system="Glutathione peroxidase 1 (Homo sapiens) (UniProt P07203)" group_label=1.0
compound="O=C1CCCC2=C1C(c1ccncc1Br)N=C(Nc1nc3ccccc3o1)N2 (stereo not drawn)" assay_system="Glutathione peroxidase 1 (Homo sapiens) (UniProt P07203)" group_label=0.0
compound=CN(C)/C(N)=N/C(=N)N assay_system="Glutathione peroxidase 1 (Homo sapiens) (UniProt P07203)" group_label=0.0
compound="CCCCCC1CC1CC1CC1CCCCCCCC(=O)O (stereo not drawn)" assay_system="Glutathione peroxidase 1 (Homo sapiens) (UniProt P07203)" group_label=0.0
compound=Cc1ccn(-c2cc(Cl)ccc2[C@@H](Oc2cc(-c3ccc(C[C@H](N)C(=O)O)cc3)nc(N)n2)C(F)(F)F)n1 assay_system="Glutathione peroxidase 1 (Homo sapiens) (UniProt P07203)" group_label=0.0
compound=Clc1ccc(-c2nc3sccn3c2/C=N/OCc2ccc(Cl)c(Cl)c2)cc1 assay_system="Glutathione peroxidase 1 (Homo sapiens) (UniProt P07203)" group_label=0.0
compound=C#C[C@]1(OC(C)=O)CC[C@H]2[C@@H]3CCC4=CC(=O)CC[C@@H]4[C@H]3CC[C@@]21C assay_system="Glutathione peroxidase 1 (Homo sapiens) (UniProt P07203)" group_label=0.0
compound=CCCCOc1ccc(-c2cncc(C(=O)NCc3cccnc3N3CCOCC3)c2)cc1Cl assay_system="Glutathione peroxidase 1 (Homo sapiens) (UniProt P07203)" group_label=0.0
compound=CC1=CC(=O)[C@@]2(C(C)C)C[C@@H]12 assay_system="Glutathione peroxidase 1 (Homo sapiens) (UniProt P07203)" group_label=0.0
compound=O=C(Nc1cccc(Nc2nccc(Nc3cccc(C(F)(F)F)c3)n2)c1)C1CC1 assay_system="Glutathione peroxidase 1 (Homo sapiens) (UniProt P07203)" group_label=0.0
compound=Cc1cc(C)c(/C=C2\C(=O)Nc3ccc(Cl)cc32)[nH]1 assay_system="Glutathione peroxidase 1 (Homo sapiens) (UniProt P07203)" group_label=0.0
compound="C=C1C(=O)O[C@@H]2C[C@@H](C)[C@]34C[C@]5(C(=O)O[C@H]6CC(C)=C([C@H](C)CCCO)[C@H](OC(=O)C(C)CC)[C@H]65)[C@@H](C(C)=C3C[C@@H]12)[C@H]4OC(C)=O (stereo partly drawn)" assay_system="Glutathione peroxidase 1 (Homo sapiens) (UniProt P07203)" group_label=0.0
compound=COc1c(-c2ccc3cc(NS(C)(=O)=O)ccc3c2)cc(-n2ccc(=O)[nH]c2=O)cc1C(C)(C)C assay_system="Glutathione peroxidase 1 (Homo sapiens) (UniProt P07203)" group_label=0.0
compound=Cc1[nH]c(/C=C2\C(=O)Nc3ccccc32)c(C)c1CCC(=O)O assay_system="Glutathione peroxidase 1 (Homo sapiens) (UniProt P07203)" group_label=0.0
